The measured values listed here are drawn from patent US20190282701A1.

Reported values of pIC50 for individual entries
- Test system: MCF-7
- Protocol summary: hypoxic/normoxic cytotoxicity, MCF-7
- Format: cell-based
- Condition parameters: Homo sapiens, MCF7, MCF-7, 0.1% O2, 3 h exposure, survival at 72 h, n=3; conjugate as TPZ groups
Reminder that pIC50 means the negative base-10 logarithm of the concentration expressed in mol/L.

Compound	Obs value
Nc1n[n+]([O-])c2ccccc2[n+]1[O-] [TPZ, tirapazamine]	4.70

Moving on to another compound below.
The compound O=C(NCCc1ccc(O)c(O)c1)Nc1n[n+]([O-])c2ccccc2[n+]1[O-] [TPZ-DOPA] showed pIC50 equal to 4.81
